Below, each entry is listed alongside its reported growth.
Tested on: BT-549 breast
Assay: NCI-60 one-dose screen, 48 h (100 = growth as untreated, 0 = no growth, -100 = all killed)
Settings: 10 µM unless noted
The panel holds about 83,000 compounds, 20% with a hit somewhere; the sample as a whole holds those more often.
property-measured: growth (%)

| compound | measured-on | readout-units | quantitative-readout |
| --- | --- | --- | --- |
| O=C1C=C(c2ccccc2)C(O)(c2ccccc2)C1 (stereo not drawn) | BT-549 breast | % | 94.8 |
| COC1C(=O)CCC2(CO2)C1(O)C1(C)OC1CCC(C)C (stereo not drawn) | BT-549 breast | % | 77.4 |
| CC(=O)Nc1ncc(S(=O)(=O)c2ccc([N+](=O)[O-])cc2)s1 | BT-549 breast | % | 108 |
| CC1CN(CCO)CC(C)O1 (stereo not drawn) | BT-549 breast | % | 108 |
| CC(CO)(CO)C(=O)O | BT-549 breast | % | 109 |
| CC(c1ccccc1)N1C(=O)CSC1=S (stereo not drawn) | BT-549 breast | % | 32.9 |
| CC(=O)NNC(=S)/N=C\C(C(=O)c1ccccc1)=C(/O)c1ccccc1 | BT-549 breast | % | 92.7 |
| CC(C)Sc1ncnc2nc[nH]c12 | BT-549 breast | % | 121 |
| COC(=O)C1=C(C)C(=O)CC1 | BT-549 breast | % | 114 |
| ClCC(Cl)C1CCC(Cl)C(Cl)C1 (stereo not drawn) | BT-549 breast | % | 103 |
| CSCC[C@@H]1C(=O)N(C)[C@H](C(C)(C)C)N1C(=O)c1ccccc1 | BT-549 breast | % | 107 |
| O=C(NCCc1ccccc1)/C(=C\c1ccc(Cl)cc1Cl)NC(=O)c1ccccc1 | BT-549 breast | % | 104 |
| CN1CCCN(C(c2ccccc2)c2ccc(Cl)cc2)CC1 (stereo not drawn) | BT-549 breast | % | 94.5 |

----------
System: OVCAR-4 ovarian
Experiment: NCI-60 one-dose screen, 48 h (100 = growth as untreated, 0 = no growth, -100 = all killed)
Settings: 10 µM unless noted
About 83,000 compounds went through this panel and 20% of them were active in at least one assay; those are over-represented in the sample as a whole. Activity calls are given as the source filed them. Rule for the calls: active = growth percent below 10; inactive = the rest.
Below, each entry is listed alongside its reported growth.

| molecule | growth |
| --- | --- |
| COc1cccc2c1Cc1ccccc1-2 | 98.9% (inactive) |
| NC(=S)N/N=C/c1ccc(OC(=O)COc2ccccc2)cn1 | 69.1% (inactive) |
| CC(CC(CCC(=O)O)(c1ccccc1)c1ccccc1)N(C)C (stereo not given) | 96.1% (inactive) |
| OCCNc1ccccc1 | 101% (inactive) |
| COc1ccc(NNS(=O)(=O)O)cc1 | 111% (inactive) |
| C=CCc1cc(OC)c(O)c(OC)c1 | 102% (inactive) |
| C=C1CC2(OC1=O)C(=O)N(C)c1ccc(I)cc12 (stereo not given) | -87.6% (active) |
| N#Cc1ccc2nc[nH]c2c1 | 109% (inactive) |
| Cc1ccc(S(N)(=O)=O)cc1Cl | 115% (inactive) |
| Cc1ccc[n+](CCC(N)=O)c1 | 87.4% (inactive) |
| Nc1ccc(F)c(Cl)c1F | 112% (inactive) |
| CSc1cnc2ccccc2n1 | 115% (inactive) |
| Nc1ccn(C2CC(N)C(CO)O2)c(=O)n1 (stereo not given) | 86.7% (inactive) |
| Nc1cc(N)ncn1 | 99% (inactive) |
| O=C(Nc1ccccc1)c1ccco1 | 100% (inactive) |

----------
System: MALME-3M melanoma
Experiment: NCI-60 one-dose screen, 48 h
Details: 10 µM unless noted
The panel holds about 83,000 compounds, 20% with a hit somewhere; the sample as a whole holds those more often. The source made the active and inactive calls. Rule for the calls: active = growth percent below 10; inactive = the rest.
Outcome codes: TRUE = active, FALSE = inactive

| chem-smiles | measured-on | assigned-category |
| --- | --- | --- |
| CC(=O)c1cccc(N(C)S(=O)(=O)c2ccc(C)cc2)c1 | MALME-3M melanoma | FALSE |
| Oc1ccc2ccccc2c1CN1CCOCC1 | MALME-3M melanoma | FALSE |
| CCOC(C=O)OCC | MALME-3M melanoma | FALSE |
| CSc1cnc2ccccc2n1 | MALME-3M melanoma | FALSE |
| S=C(NCc1ccccc1)N1CCC(CCCC2CCN(C(=S)NCc3ccccc3)CC2)CC1 | MALME-3M melanoma | FALSE |
| CCOC(=O)C(C#N)=C1CCN(C)CC1 | MALME-3M melanoma | FALSE |
| C=C(c1ccc(N(C)C)cc1)c1ccc(N(C)C)cc1 | MALME-3M melanoma | FALSE |
| O=C(O)c1c[nH]c2ccccc2c1=O | MALME-3M melanoma | FALSE |
| Nc1ccc2c(c1)Cc1cc(N)c(N)cc1-2 | MALME-3M melanoma | FALSE |
| Cc1cc(Cl)cc(Cc2cc(Cl)cc(C)c2O)c1O | MALME-3M melanoma | TRUE |
| Cc1ccc(N2C(=O)c3cccc4c(N)c(S(=O)(=O)O)cc(c34)C2=O)cc1 | MALME-3M melanoma | FALSE |
| CC(C)(CC(=O)O)CC(=O)O | MALME-3M melanoma | FALSE |
| Cc1cc(Nc2ccc3c(c2)OCO3)c2cc3c(cc2n1)OCO3 | MALME-3M melanoma | FALSE |

----------
System: NCI-H522 lung
Assay: NCI-60 one-dose screen, 48 h (100 = growth as untreated, 0 = no growth, -100 = all killed)
Settings: 10 µM unless noted
Compounds without any hit were thinned out: in the full panel of roughly 83,000, 20% have a hit.
property-measured: growth (%)

| compound | measured-on | property-measured | readout-units | quantitative-readout |
| --- | --- | --- | --- | --- |
| N#CC1(O)CCCCC1 | NCI-H522 lung | growth | % | 88.6 |
| Cc1c(Cl)cccc1N=C=S | NCI-H522 lung | growth | % | 86.8 |
| CC(C)N(CCCC#N)C(C)C | NCI-H522 lung | growth | % | 108 |
| CN1CCCN(C(c2ccccc2)c2ccc(Br)cc2)CC1 (stereo not drawn) | NCI-H522 lung | growth | % | 90.8 |
| CC1CC2C3CCC4=CC(=O)CCC4(C)C3CCC2(C)C1(O)C(=O)CO (stereo not drawn) | NCI-H522 lung | growth | % | 92.2 |
| COc1cccc(C(=O)O)c1OC | NCI-H522 lung | growth | % | 87.2 |
| O=[N+]([O-])c1ccc(-c2nc(N(CCO)CCO)c3ccccc3n2)o1 | NCI-H522 lung | growth | % | -54 |
| CCCCOC(=O)c1ccc(NC(=O)CCl)cc1 | NCI-H522 lung | growth | % | -77.7 |
| CCc1ccccc1C(=O)N(CC)CC | NCI-H522 lung | growth | % | 105 |
| CC1CC(C)S(=O)(=O)C1 (stereo not drawn) | NCI-H522 lung | growth | % | 97.8 |
| COC1OC(CO)C(OC)C(O)C1O (stereo not drawn) | NCI-H522 lung | growth | % | 113 |
| CCOC(=O)c1cc(Cl)c(O)c(Cl)c1 | NCI-H522 lung | growth | % | 103 |
| CC(C)(C)CC1(C)NC(=O)NC1=O (stereo not drawn) | NCI-H522 lung | growth | % | 150 |
| CCCC(OC(C)=O)c1ccc2c(c1)OCO2 (stereo not drawn) | NCI-H522 lung | growth | % | 103 |
| NNC(=O)CCCCl | NCI-H522 lung | growth | % | 104 |
| OCC(O)COc1ccc(Cl)cc1Cl (stereo not drawn) | NCI-H522 lung | growth | % | 79.5 |
| CC(=O)O[C@H]1CC[C@]2(C)C3=C(C(=O)C[C@H]2C1(C)C)[C@]1(C)CC[C@H]([C@H](C)CCC(=O)O)[C@@]1(C)CC3=O | NCI-H522 lung | growth | % | 81.8 |
| Nc1ncnc2c1ncn2C1OC(CO)C2OC21 (stereo not drawn) | NCI-H522 lung | growth | % | 94.6 |
| CCC(C)c1c(N)n(S(=O)(=O)c2ccc(C)cc2)oc1=O (stereo not drawn) | NCI-H522 lung | growth | % | 90.1 |
| O=C(c1ccccc1O)N1CCCC1 | NCI-H522 lung | growth | % | 76.1 |
| CCNc1ccc2ccccc2c1N=Nc1ccc(N=Nc2ccccc2)cc1 | NCI-H522 lung | growth | % | 90.2 |
| COc1cccc(C(=O)NNC(=O)c2cccc3ccccc23)c1 | NCI-H522 lung | growth | % | 102 |
| N=C(N)c1nn(C2OC(CO)C(O)C2O)c2nc[nH]c(=O)c12 (stereo not drawn) | NCI-H522 lung | growth | % | 11.5 |
| O=Cc1c(O)c2ccccc2[nH]c1=O | NCI-H522 lung | growth | % | 94.8 |
| Cc1[nH]c(=S)[nH]c(=O)c1C | NCI-H522 lung | growth | % | 95.4 |
| Oc1ccc(CCC2CCNc3ccccc32)cc1 (stereo not drawn) | NCI-H522 lung | growth | % | 68.8 |
| S=C(Sc1ccc(Cl)cc1)Sc1ccc(Cl)cc1 | NCI-H522 lung | growth | % | -83 |
| CCOC(=O)C(C#N)=C1CCN(C)CC1 | NCI-H522 lung | growth | % | 105 |
